Cited source for all entries: patent US12139487B2

Assay system: BRM (Homo sapiens, UniProt P51531)
Construct: made in house; host or cells: High Five insect cells
Sequence (P51531 whole entry): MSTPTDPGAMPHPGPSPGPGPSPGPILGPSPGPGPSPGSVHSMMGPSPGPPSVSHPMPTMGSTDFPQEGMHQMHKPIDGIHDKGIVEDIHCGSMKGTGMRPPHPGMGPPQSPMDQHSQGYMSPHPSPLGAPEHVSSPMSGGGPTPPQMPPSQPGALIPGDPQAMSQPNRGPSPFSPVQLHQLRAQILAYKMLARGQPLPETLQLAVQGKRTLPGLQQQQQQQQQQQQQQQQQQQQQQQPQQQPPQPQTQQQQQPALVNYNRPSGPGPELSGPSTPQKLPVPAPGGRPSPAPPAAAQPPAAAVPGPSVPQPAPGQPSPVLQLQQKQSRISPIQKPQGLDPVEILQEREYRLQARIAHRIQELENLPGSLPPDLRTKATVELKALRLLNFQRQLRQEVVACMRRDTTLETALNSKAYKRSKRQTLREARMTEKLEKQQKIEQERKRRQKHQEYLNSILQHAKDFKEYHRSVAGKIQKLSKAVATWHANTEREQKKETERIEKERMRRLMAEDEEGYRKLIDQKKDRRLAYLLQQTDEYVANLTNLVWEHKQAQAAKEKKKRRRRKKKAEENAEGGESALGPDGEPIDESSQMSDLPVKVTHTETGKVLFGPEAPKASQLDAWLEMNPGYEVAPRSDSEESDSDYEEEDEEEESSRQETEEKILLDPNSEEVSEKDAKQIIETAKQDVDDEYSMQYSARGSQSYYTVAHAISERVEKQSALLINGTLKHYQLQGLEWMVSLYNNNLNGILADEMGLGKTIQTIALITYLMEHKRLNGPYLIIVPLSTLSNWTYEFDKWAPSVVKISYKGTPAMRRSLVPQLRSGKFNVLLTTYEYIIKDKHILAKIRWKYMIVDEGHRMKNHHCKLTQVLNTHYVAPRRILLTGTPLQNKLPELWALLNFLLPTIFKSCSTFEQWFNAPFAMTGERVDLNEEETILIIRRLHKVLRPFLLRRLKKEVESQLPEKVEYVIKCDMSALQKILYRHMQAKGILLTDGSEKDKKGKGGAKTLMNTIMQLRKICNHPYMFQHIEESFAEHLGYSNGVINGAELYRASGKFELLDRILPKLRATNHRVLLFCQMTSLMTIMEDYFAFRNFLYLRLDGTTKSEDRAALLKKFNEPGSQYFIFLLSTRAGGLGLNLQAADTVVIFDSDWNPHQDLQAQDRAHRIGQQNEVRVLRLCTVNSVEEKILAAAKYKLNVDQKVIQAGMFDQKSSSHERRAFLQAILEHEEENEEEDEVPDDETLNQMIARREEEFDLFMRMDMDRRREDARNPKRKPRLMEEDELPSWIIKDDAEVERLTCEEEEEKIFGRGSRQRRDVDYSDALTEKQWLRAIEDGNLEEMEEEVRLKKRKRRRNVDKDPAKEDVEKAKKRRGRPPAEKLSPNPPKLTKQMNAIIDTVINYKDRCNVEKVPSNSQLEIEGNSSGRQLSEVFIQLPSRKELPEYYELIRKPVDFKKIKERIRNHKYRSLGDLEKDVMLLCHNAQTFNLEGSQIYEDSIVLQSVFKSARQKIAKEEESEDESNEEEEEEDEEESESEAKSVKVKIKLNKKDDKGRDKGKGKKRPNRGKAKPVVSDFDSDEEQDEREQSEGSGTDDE
Assay details: ATPase catalytic activity assay (ADP-Glo), BRM
Assay type: biochemical
Conditions used: ATPase assay, selectivity BRG1/BRM, Table 10
Metric name: Ratio (BRG1 IC50 (μM) divided by BRM IC50 (μM))

Compound	Assay system	Observed value
O=C(NCc1cc2nc(N3CCCc4cc(C5COC5)cnc43)ccc2cn1)c1cc(F)c2c(c1)S(=O)(=O)[C@@H](F)CCO2	BRM (Homo sapiens, UniProt P51531)	17.20

I. O=C(NCc1cc2nc(N3CCOc4cc(N5CCC5)cnc43)ccc2cn1)c1cc(F)c2c(c1)S(=O)(=O)[C@@H](F)CCO2
II. COCCc1cnc2c(c1)OCCN2c1ccc2cnc(CNC(=O)c3cc(F)c4c(c3)S(=O)(=O)[C@@H](F)CCO4)cc2n1
Q: I'm curious, which of these has a smaller Ratio (BRG1 IC50 (μM) divided by BRM IC50 (μM)) number: I or II ? State the label of the item chosen.
Ans: II

---

Quick record: IC50, BRG-1 (Homo sapiens).
Metric name: IC50 (µM)

Smiles representation	IC50, µM
[2H]C([2H])([2H])Oc1ccc(-c2ccc3cnc(CNC(=O)c4cc(F)c5c(c4)S(=O)(=O)[C@@H](F)CCO5)cc3n2)nc1C1CC1	0.108

A. COc1cc(F)ccc1-c1ccc2cnc(CNC(=O)c3cc(F)c4c(c3)S(=O)(=O)[C@@H](F)CCO4)cc2n1
B. O=C(NCc1cc2nc(N3CCOc4ccc([C@H]5C[C@H]5F)nc43)ccc2cn1)c1cc(F)c2c(c1)S(=O)(=O)[C@@H](F)CCO2
Q: I'm curious, which of these has a smaller IC50 number: A or B ? State the label of the item chosen.
Ans: B
(B: 0.09 µM, A: 0.153 µM)

---

pIC50: −log10 of the molar value.
Quick record: pIC50, UniProt P51531.
Metric name: pIC50

Smiles representation	Metric name	Observed value
COc1nc(C(F)F)ccc1-c1ccc2cnc([C@H](C)NC(=O)c3ccc4c(c3)S(=O)(=O)[C@@H](F)CCOC4)cc2n1	pIC50	8.38

I. CO[C@H]1CN(c2cccc(-c3ccc4cnc(CNC(=O)c5cc(F)c6c(c5)S(=O)(=O)[C@@H](F)CCO6)cc4n3)n2)C[C@@H]1F
II. CCO[C@@H]1CCN(c2cccc(-c3ccc4cnc(CNC(=O)c5cc(F)c6c(c5)S(=O)(=O)[C@@H](F)COC6)cc4n3)n2)C1
Q: Thinking about recorded pIC50 values, which is higher, I or II ? State the label of the item chosen.
Ans: II

---

Quick record: IC50, BRG-1 (Homo sapiens, UniProt P51532).
Metric name: IC50 (nM)

The cases that follow already have their IC50 on record.
Smiles representation	Assay system	IC50 (nM)
COc1cnc2c(c1)OCCN2c1ccc2cnc(CNC(=O)c3cc(F)c4c(c3)S(=O)(=O)[C@@H](F)CCO4)cc2c1	BRG-1 (Homo sapiens, UniProt P51532)	69.5
Cc1cc(C(=O)NCc2cc3nc(-c4cccc(OC(F)F)n4)ccc3cn2)cc2c1COC[C@H](F)S2(=O)=O	BRG-1 (Homo sapiens, UniProt P51532)	197
COc1cnc2c(c1)OCCN2c1ccc2cnc(CNC(=O)c3cc(F)c4c(c3)S(=O)(=O)[C@@H](F)CCO4)cc2n1	BRG-1 (Homo sapiens, UniProt P51532)	48.3
COc1nc(C(F)F)ccc1-c1ccc2cnc(CNC(=O)c3cc(F)c4c(c3)S(=O)(=O)[C@@H](F)CCO4)c(F)c2n1	BRG-1 (Homo sapiens, UniProt P51532)	74.9

1. CN(C)c1cnc2c(c1)OCCN2c1ccc2cnc(CNC(=O)c3cc(F)c4c(c3)S(=O)(=O)[C@@H](F)CCO4)cc2n1
2. [2H]C1([2H])OC([2H])([2H])[C@H](F)S(=O)(=O)c2cc(C(=O)NCc3cc4nc(N5CCOc6cc(N7CC(F)C7)cnc65)ccc4cn3)cc(F)c21
Q: Thinking about recorded IC50 values, which is higher, 1 or 2 ? State the label of the item chosen.
Ans: 2
